B1: glmS ribozyme (parent)
chain: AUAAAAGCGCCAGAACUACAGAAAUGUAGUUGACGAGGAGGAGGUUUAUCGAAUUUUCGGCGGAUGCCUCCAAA

Variants of: B1
Assay summary: self-cleavage kobs at 160 uM GlcN6P; higher = faster cleavage; RNA array
Conditions used: with glucosamine-6-phosphate
Fewer inactive variants are shown than the library holds.
Measured self-cleavage kobs at 160 uM GlcN6P, listed per entry.

Record excerpt, results attached:
G44U U49C | < 1e-05 s⁻¹
A15G U46C | 0.000465 s⁻¹
G13U G29A A52C | < 1e-05 s⁻¹

Which self-cleavage kobs at 160 uM GlcN6P is reported for this variant? G7C U56G
< 1e-05 s⁻¹
